// data source = ChEMBL document CHEMBL3259696

Record form. Attribute: solubility at 168 h. Fill in for each entry.
Test: Solubility of the compound in sodium phosphate buffer at pH 8.6 at 25 degC after 1 week by HPLC-ESIMS/MS analysis
Assay type: physicochemical
# unit: mM | format: bare number

[Q] Entry under review: `COc1ccc2cc3[n+](cc2c1OC)CCc1cc(O)c(O)cc1-3.[Cl-]` . Reported solubility at 168 h?
[A] 6.5

[Q] Entry under review: COc1ccc2cc3[n+](cc2c1O)CCc1cc2c(cc1-3)OCO2.[Cl-] [BERBERRUBINE CHLORIDE] . Reported solubility at 168 h?
[A] 0.5

[Q] Entry under review: COc1cc2c(cc1O)CC[n+]1cc3c(OC)c(OC)ccc3cc1-2.[Cl-] [JATRORRHIZINE CHLORIDE] . Reported solubility at 168 h?
[A] 12.2

[Q] Entry under review: COc1ccc2cc3[n+](cc2c1OC)CCc1cc2c(cc1-3)OCO2.[Cl-] [BERBERINE CHLORIDE] . Reported solubility at 168 h?
[A] 9.6

---

Test system: Plasma
Assay: Cmax in human plasma assessed as jatrorrhizine at 500 mg, po by HPLC-ESIMS/MS analysis
Type: ADME, organism-based
Design: dose 500 mg, route oral
Conditions: in vivo
Quantity: Cmax (nM)
# unit: nM | format: bare number

[Q] Entry under review: COc1ccc2cc3[n+](cc2c1OC)CCc1cc2c(cc1-3)OCO2.[Cl-] [BERBERINE CHLORIDE] . Reported Cmax?
[A] 0.13

---

Tested on: Homo sapiens
Test: Cmax at steady state in hypercholesterolemic patient assessed as jatrorrhizine at 15 mg/kg/day administered for 3 months by HPLC-ESIMS/MS analysis
Format: ADME, organism-based
Parameters: dose 15 mg/kg/day
Settings: in vivo
Quantity: Cmax (nM)
# unit: nM | format: bare number

[Q] Entry under review: COc1ccc2cc3[n+](cc2c1OC)CCc1cc2c(cc1-3)OCO2.[Cl-] [BERBERINE CHLORIDE] . Reported Cmax?
[A] 5.6

---

Assay: Cmax in human plasma at 500 mg, po by HPLC-ESIMS/MS analysis
Format: ADME, organism-based
Parameters: dose 500 mg, route oral
Quantity: Cmax (nM)
# unit: nM | format: bare number

[Q] Entry under review: COc1ccc2cc3[n+](cc2c1OC)CCc1cc2c(cc1-3)OCO2.[Cl-] [BERBERINE CHLORIDE] . Reported Cmax?
[A] 0.07

---

Assay: 1-Octanol-water distribution coefficient, log D of the compound at pH 8.6 after 1 week by HPLC-ESIMS/MS analysis
Format: physicochemical
Quantity: logD at 168 h
// no unit, no text: just the number

[Q] Entry under review: `COc1ccc2cc3n(cc-2c1=O)CCc1cc2c(cc1-3)OCO2` . Reported logD at 168 h?
[A] 4.6

[Q] Entry under review: COc1ccc2cc3[n+](cc2c1OC)CCc1cc2c(cc1-3)OCO2.[Cl-] [BERBERINE CHLORIDE] . Reported logD at 168 h?
[A] -1.2

[Q] Entry under review: `COc1ccc2cc3[n+](cc2c1OC)CCc1cc(O)c(O)cc1-3.[Cl-]` . Reported logD at 168 h?
[A] -0.3

[Q] Entry under review: COc1cc2c(cc1O)CC[n+]1cc3c(OC)c(OC)ccc3cc1-2.[Cl-] [JATRORRHIZINE CHLORIDE] . Reported logD at 168 h?
[A] 0.6

[Q] Entry under review: COc1ccc2cc3[n+](cc2c1O)CCc1cc2c(cc1-3)OCO2.[Cl-] [BERBERRUBINE CHLORIDE] . Reported logD at 168 h?
[A] 4.6

---

Tested on: Plasma
Test: Plasma concentration in human assessed as berberrubine at 500 mg, po after 24 hrs by HPLC-ESIMS/MS analysis
Type: ADME, organism-based
Settings: in vivo
Quantity: concentration (nM)
# unit: nM | format: bare number

[Q] Notebook entry, Plasma assay: concentration of COc1ccc2cc3[n+](cc2c1OC)CCc1cc2c(cc1-3)OCO2.[Cl-] [BERBERINE CHLORIDE] = ?
[A] 0.15
